# maps each entry to its Anti-PSMA Fab (SEQ ID NOs: 19, 20) signal
Molecular target: T1, Anti-PSMA Fab (SEQ ID NOs: 19, 20)
T1 construct: Used biotinylated and captured on neutravidin coated plates; also called 006 PSMA Fab
Assay: phage binding ELISA; biotinylated anti-PSMA Fab on neutravidin plate, clonal phage supernatant, anti-M13-HRP detection
Where no end group is shown, it is not given here.
PARAMETER: Anti-PSMA Fab (SEQ ID NOs: 19, 20) signal

[[record]]
binder = "MEYCSFHRFTCVLW (cysteine pairing not given here; also: displayed on phage as pIII fusion, pIII sequence, linker and fusion order not given here, not shown: pIII coat protein of the bacteriophage to which the peptide is fused) [Phage-1711]"
assay_value = 1.88

[[record]]
binder = "LMKWCTPRWMCAAE (cysteine pairing not given here; also: fused to phage pIII (clonal phage display), not shown: pIII coat protein of the bacteriophage to which the peptide is fused) [Phage-1707]"
assay_value = 1.04

[[record]]
binder = "SCFSFARLEVVPCD (cysteine pairing not given here; also: displayed on phage as pIII fusion, pIII sequence, linker and fusion order not given here, not shown: pIII coat protein of the bacteriophage to which the peptide is fused) [Phage-1721]"
assay_value = 1.26

[[record]]
binder = "TCLRFADLAIIHCD (cysteine pairing not given here; also: displayed on phage as pIII fusion, pIII sequence, linker and fusion order not given here, also called Peptide-160; not shown: pIII coat protein of the bacteriophage to which the peptide is fused) [Phage-1722]"
assay_value = 1.82

[[record]]
binder = "ILCGLYEALVSECG (cysteine pairing not given here; also: displayed on phage as pIII fusion, pIII sequence, linker and fusion order not given here, not shown: pIII coat protein of the bacteriophage to which the peptide is fused) [Phage-1715]"
assay_value = 2.49

[[record]]
binder = "PELRCVPFWMCSFN (cysteine pairing not given here; also: fused to phage pIII (clonal phage display), not shown: pIII coat protein of the bacteriophage to which the peptide is fused) [Phage-1709]"
assay_value = 0.622

[[record]]
binder = "FVCWTFGEHIKVCR (cysteine pairing not given here; also: displayed on phage as pIII fusion, pIII sequence, linker and fusion order not given here, not shown: pIII coat protein of the bacteriophage to which the peptide is fused) [Phage-1714]"
assay_value = 2.51

[[record]]
binder = "SIPCIPRDWLCPIK (cysteine pairing not given here; also: displayed as fusion to phage pIII, linker and order of fusion not given here, not shown: pIII coat protein of the bacteriophage to which the peptide is fused) [Phage-1710]"
assay_value = 1.89

